Target: T1, human amylin receptor (calcitonin receptor co-expressed with receptor activity modifying protein, RAMP3) (human, UniProt P30988 25-474; O60896 24-148)
T1 sequence (looked up) 1: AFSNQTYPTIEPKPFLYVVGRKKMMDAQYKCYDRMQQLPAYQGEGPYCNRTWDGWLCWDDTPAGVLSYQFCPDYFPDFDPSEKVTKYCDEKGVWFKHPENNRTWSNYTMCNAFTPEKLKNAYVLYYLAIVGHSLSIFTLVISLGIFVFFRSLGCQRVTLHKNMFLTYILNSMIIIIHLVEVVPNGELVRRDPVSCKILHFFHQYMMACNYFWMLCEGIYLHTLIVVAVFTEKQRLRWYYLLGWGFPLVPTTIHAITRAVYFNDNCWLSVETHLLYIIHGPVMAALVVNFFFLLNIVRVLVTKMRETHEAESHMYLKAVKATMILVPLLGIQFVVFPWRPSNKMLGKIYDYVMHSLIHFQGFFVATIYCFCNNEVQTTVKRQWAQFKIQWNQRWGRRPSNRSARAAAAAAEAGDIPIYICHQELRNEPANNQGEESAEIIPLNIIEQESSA
T1 sequence (looked up) 2: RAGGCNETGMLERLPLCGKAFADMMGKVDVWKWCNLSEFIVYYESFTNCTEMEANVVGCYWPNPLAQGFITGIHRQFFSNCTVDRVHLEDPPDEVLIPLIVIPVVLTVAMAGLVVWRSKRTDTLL
Experiment: cell-based or functional assay
Numbered stars: 1 amine (or outer) side, 2 acyl side, 3 side chain; on linkers, the order of the positions; unused ones are H or OH. Bridge positions count the residues as written; N and C are the ends. Square brackets hold non-standard residues; d marks the D form. Side chains are listed from the residue outwards. Ends that are not written are not given here. * marks the point of attachment. C20 diacid = O=C(O)CCCCCCCCCCCCCCCCCCC(=O)*; C18 diacid = O=C(O)CCCCCCCCCCCCCCCCC(=O)*; γGlu = O=C(O)[C@H](CCC(=O)[*:2])N[*:1]; Hyp = O=C(O)[C@@H]1C[C@@H](O)CN1; αMeF = C[C@](N)(Cc1ccccc1)C(=O)O; Aib = CC(C)(N)C(=O)O
API: label(entry) gives yes if the entry's EC50 (cAMP production) is strictly smaller than 300 pM; on equality or larger values it gives no.

Illustrative cases are given below, each with its answer.
K([γGlu-γGlu-C20 diacid])CNTATCATQRLANFLVHSS[Aib]NF[Hyp]AILSPTNVGSNTY-NH2 (disulfide 2-7; not fully specified; printed as K(γE-γE-C20diacid)[CNTATC]ATQRLANFLVHSS(Aib)NF(Hyp)AILSPTNVGSNTY-amide) [Peptide 121 (SEQ ID NO: 121)]: no
{C18 diacid}-[γGlu]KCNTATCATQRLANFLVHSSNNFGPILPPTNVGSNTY-NH2 (disulfide 3-8) [Peptide 3 (SEQ ID NO: 3)]: yes
K([γGlu-γGlu-C18 diacid])CNTATCATQRLANFLVHSSNN[αMeF]GPILPPTNVGSNTY-NH2 (disulfide 2-7) [Peptide 13 (SEQ ID NO: 13)]: yes
K([γGlu-γGlu-C18 diacid])CNTATCATQRLANFLRHSSNN[αMeF]GPILPPTEVGSNTY-NH2 (disulfide 2-7) [Peptide 18 (SEQ ID NO: 18)]: no

# input for lookup
Challenge: For K([γGlu-γGlu-C18 diacid])CNTATCATQRLANFLVHSS[Aib]NFGPILPPT[Aib]VGSNTY-NH2 (disulfide 2-7) [Peptide 89 (SEQ ID NO: 89)] , is the recorded EC50 (cAMP production) below the cut-off of 300 pM?
Response given: no
